# targetEntity: MMP-9 (Homo sapiens, UniProt P14780)
# Sequence (P14780 94-707): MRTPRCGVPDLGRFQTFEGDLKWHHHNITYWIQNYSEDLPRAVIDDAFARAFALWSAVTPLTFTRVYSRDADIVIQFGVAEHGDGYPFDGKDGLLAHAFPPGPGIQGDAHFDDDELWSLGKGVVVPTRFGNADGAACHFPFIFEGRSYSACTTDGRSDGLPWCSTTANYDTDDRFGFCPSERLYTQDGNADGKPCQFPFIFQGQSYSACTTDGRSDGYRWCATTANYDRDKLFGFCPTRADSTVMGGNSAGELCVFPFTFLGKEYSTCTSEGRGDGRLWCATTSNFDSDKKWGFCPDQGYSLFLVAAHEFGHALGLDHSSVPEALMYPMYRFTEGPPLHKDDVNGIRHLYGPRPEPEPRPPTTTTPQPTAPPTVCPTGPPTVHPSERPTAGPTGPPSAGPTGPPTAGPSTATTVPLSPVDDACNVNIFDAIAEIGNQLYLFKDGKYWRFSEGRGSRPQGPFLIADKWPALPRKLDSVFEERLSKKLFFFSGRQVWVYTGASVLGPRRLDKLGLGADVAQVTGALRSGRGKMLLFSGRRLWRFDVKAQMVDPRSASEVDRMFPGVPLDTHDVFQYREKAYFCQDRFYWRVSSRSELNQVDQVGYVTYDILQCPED
# assayText: TPL (thiopeptolide) assay, MMP-9
# Format: biochemical
# experimentalSetup: read-out: IC50 MMP-9
Structures can show the parent of a compound that is named as a salt.
Below is a list of entries, each paired with its recorded IC50 value.
measuredQuantity: IC50

>>> result("O=C(O)c1ccc(CNC(=O)c2cc(-c3ccc(OC(F)(F)F)cc3)cs2)cc1")
"> 30 µM"
>>> result("COc1cccc(COC(=O)c2cc3c(=O)n(Cc4ccc(-c5nn[nH]n5)cc4)c(=O)[nH]c3s2)c1")
"> 100 µM"
>>> result("O=C(O)C[C@@H](NC(=O)c1cc(-c2ccc(-c3ccncc3)cc2)cs1)c1ccccc1 [Example 6, hydrochloride]")
"> 1.4 µM"
>>> result("COc1ccc(CC#Cc2ccc3ncn(Cc4ccc(C(=O)O)cc4)c(=O)c3c2)cc1")
"> 30 µM"
>>> result("COc1ccc(CC#Cc2ccc3c(c2)c(=O)n(Cc2ccc(C(=O)O)cc2)c(=O)n3C)cc1")
"> 30 µM"
